// Vd/F lookup, one value per entry
testProtocol: Pharmacokinetics assay in rats
Format: in vivo
assayConditions: both sexes, Sprague-Dawley, rat, plasma, po; SD rats, intragastric, 5 mg/kg; read-out: Apparent Distribution Volume Vz/F
Method: Rats were used as test animals. The drug concentration in plasma at different time points was determined by LC/MS/MS after administration of the compounds of Example 8, Example 11, Example 14, Example 17, Example 20, Example 27, Example 33, Example 35, Example 36, Example 37 and Example 48 to rats. The pharmacokinetic behavior of the present compounds was studied and evaluated in rats. […] Plasma samples were analyzed after pretreatment by protein precipitation.
Number only, in L/kg; omit the unit.

Consider the reported Vd/F for these compounds:
Cn1c(-c2ccc(Cl)cc2)cc2cc(NC(=O)c3cc(CNC(=O)C(C)(C)F)cnc3C(F)F)ccc21 has a reported Vd/F of 17.9

CCn1c(-c2ccc(F)cc2)cc2cc(NC(=O)c3cc(CNC(=O)C(C)(C)C)ccc3Cl)ccc21 has a reported Vd/F of 10.5

CCn1c(-c2cccc(Cl)c2)cc2nc(NC(=O)c3cc(CNC(=O)C(C)(C)F)cnc3C(F)F)ccc21 has a reported Vd/F of 1.39

# evaluate next
CCn1c(-c2ccc(C(F)(F)F)cc2)cc2cc(NC(=O)c3cc(CNC(=O)C(C)(C)F)cnc3C(F)F)ccc21 has a reported Vd/F of 20.2
